Molecule	Display Unit	melting point
N#CCC(=O)N[C@H]1CC[C@H](CCN2CCN(c3c(F)c(F)c(F)c(F)c3F)CC2)CC1 [Example 753]	°C	202
O=C(N[C@H]1CC[C@H](CCN2CCN(c3ccccn3)CC2)CC1)C1CC=CC1 [Example 65]	°C	208
CCc1ccccc1C1=CCN(CC[C@H]2CC[C@H](NC(=O)CCCC#N)CC2)CC1	°C	120
CC(=O)CN1CCC(CCN2CCN(c3ccc(Cl)cc3)CC2)CC1.Cl.Cl	°C	277
COCCCC(=O)N[C@H]1CC[C@H](CCN2CCN(c3ccccc3)CC2)CC1 [Example 99]	°C	172
N#CCCCC(=O)N[C@H]1CC[C@H](CCN2CC=C(c3cc(F)cc(C(F)(F)F)c3)CC2)CC1	°C	114
O=C(N[C@H]1CC[C@H](CCN2CCN(c3ccc(Cl)cc3)CC2)CC1)C1=CCCC1 [Example 488]	°C	237
COCC(=O)N[C@H]1CC[C@H](CCN2CCN(c3cccc(C(F)(F)F)c3)CC2)CC1.Cl	°C	217
Cc1cccc(N2CCN(CC[C@H]3CC[C@H](NC(=O)C4=CCCC4)CC3)CC2)c1 [Example 380]	°C	188
N#CCCCC(=O)N[C@H]1CC[C@H](CCN2CCN(c3ccc(F)c(C(F)(F)F)c3)CC2)CC1 [Example 430]	°C	149
O=C(N[C@H]1CC[C@H](CCN2CCN(c3ccccc3)CC2)CC1)C1=CCCCC1 [Example 66]	°C	193
N#CCC(=O)N[C@H]1CC[C@H](CCN2CCN(c3cc(F)cc(C(F)(F)F)c3)CC2)CC1 [Example 664]	°C	178
CSc1cccc(N2CCN(CC[C@H]3CC[C@H](NC(=O)CCC#N)CC3)CC2)c1 [Example 269]	°C	98
Cc1c(F)cccc1N1CCN(CC[C@H]2CC[C@H](NC(=O)CC#N)CC2)CC1 [Example 313]	°C	174
N#CCC(=O)N[C@H]1CC[C@H](CCN2CCN(c3cc(Cl)cc(C(F)(F)F)c3)CC2)CC1 [Example 528]	°C	172
N#C[C@@H]1CC1C(=O)N[C@H]1CC[C@H](CCN2CCN(c3cccc(C(F)(F)F)c3)CC2)CC1 (stereo in doubt) [Example 324]	°C	159
O=C(COc1ccccc1)N[C@H]1CC[C@H](CCN2CCN(c3ccccc3F)CC2)CC1 [Example 88]	°C	172
COCCCC(=O)N[C@H]1CC[C@H](CCN2CCN(c3cc(C)cc(C)c3)CC2)CC1 [Example 715]	°C	195
N#CCC(=O)N[C@H]1CC[C@H](CCN2CCN(c3ccccc3Cl)CC2)CC1 [Example 131]	°C	194
N#CCC(=O)N[C@H]1CC[C@H](CCN2CCN(c3cccc(Cc4ccccc4)c3)CC2)CC1 [Example 216]	°C	168
Cl.N#CCCCC(=O)N1CCC(CCN2CCN(c3cccc(C(F)(F)F)c3)CC2)CC1	°C	95
O=C(N[C@H]1CC[C@H](CCN2CCN(c3ccccc3F)CC2)CC1)C1=CCCCC1 [Example 67]	°C	209
O=C(N[C@H]1CC[C@H](CCN2CCN(c3cccc(C(F)(F)F)c3F)CC2)CC1)C1=COCC1 [Example 497]	°C	192
N#CCCCCC(=O)N[C@H]1CC[C@H](CCN2CCN(c3cc(C(F)(F)F)ccc3F)CC2)CC1 [Example 731]	°C	158
COCCCC(=O)N[C@H]1CC[C@H](CCN2CCN(c3cc(Cl)cc(Cl)c3)CC2)CC1 [Example 691]	°C	184
CCOCC(=O)N[C@H]1CC[C@H](CCN2CCN(c3cc(C#N)cc(C(F)(F)F)c3)CC2)CC1 [Example 140]	°C	133
COC(=O)N[C@H]1CC[C@H](CCN2CCN(c3cccc(C(F)(F)F)c3)CC2)CC1 [Example 39]	°C	135
COCCCC(=O)N[C@H]1CC[C@H](CCN2CCN(c3cccc(F)c3C)CC2)CC1 [Example 689]	°C	172
COc1cccc(N2CCN(CC[C@H]3CC[C@H](NC(=O)CC#N)CC3)CC2)c1.Cl	°C	219
CC(=O)CN1CCC(CCN2CCN(c3ccc(F)c(C#N)c3)CC2)CC1 [Example 659]	°C	102
